FYI, the data here is from ChEMBL document CHEMBL4622974.

- assay protocol: Cmax in SD rat at 10 mg/kg, po after 0.25 to 24 hrs by LC/MS/MS method
- Type: ADME, organism-based
- Set-up: dose 10 mg/kg, route oral
- condition set: in vivo
Cmax overview
Value expressed in nM; do not type the unit.

>  <chemical structure>
COc1cc(-c2cncc(-c3ccc(N4CCNCC4)cc3)c2C)cc(OC)c1OC

>  <Cmax [nM]>
1280

$$$$

Q: Given the molecule COc1cc(-c2cncc(-c3ccc(C4CCN(C)CC4)cc3)c2C)cc(OC)c1OC , write its reported Cmax.
A: 1160

---

Each record here notes measured log10 IC50.
- tested system: Activin receptor type-1 (Homo sapiens, UniProt Q04771)
- Sequence (Q04771 whole entry): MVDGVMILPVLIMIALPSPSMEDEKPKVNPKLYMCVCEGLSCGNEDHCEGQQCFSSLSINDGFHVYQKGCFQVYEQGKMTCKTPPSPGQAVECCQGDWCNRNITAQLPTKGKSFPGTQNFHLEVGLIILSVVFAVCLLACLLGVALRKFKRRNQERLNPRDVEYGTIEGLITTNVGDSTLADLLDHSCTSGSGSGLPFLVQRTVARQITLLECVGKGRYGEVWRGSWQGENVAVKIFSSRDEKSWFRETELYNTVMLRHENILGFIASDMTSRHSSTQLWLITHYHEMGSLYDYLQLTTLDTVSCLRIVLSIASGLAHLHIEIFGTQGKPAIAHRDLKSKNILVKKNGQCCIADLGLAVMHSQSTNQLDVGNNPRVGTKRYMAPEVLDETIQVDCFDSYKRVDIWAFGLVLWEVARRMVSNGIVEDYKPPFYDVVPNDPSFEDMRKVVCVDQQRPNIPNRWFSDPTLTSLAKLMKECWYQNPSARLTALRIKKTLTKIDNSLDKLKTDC
- assay protocol: Inhibition of human ALK2 using casein as substrate in presence of [gamma-33P]-ATP by radiometric hotspot assay
// units: µM (pre-log); metric: IC50; scale: log10

// known answers, use as guide
>  <chemical structure>
COc1cc(-c2cncc(-c3ccc(N4CCOCC4)cc3)c2C)cc(OC)c1OC

>  <observation type>
log10 IC50

>  <measured value>
-1.55

$$$$
>  <chemical structure>
COc1cc(-c2cncc(-c3ccc(OC4CCN(C)CC4)cc3)c2C)cc(OC)c1OC

>  <observation type>
log10 IC50

>  <measured value>
-2.22

$$$$

Next up:
Q: Output reported log10 IC50 of the compound COc1cc(-c2cncc(-c3ccc(C4=CCN(C)CC4)cc3)c2C)cc(OC)c1OC on Activin receptor type-1 (Homo sapiens, UniProt Q04771).
A: -1.85

---

- assay protocol: Drug level in CD-1 mouse brain at 1 mg/kg, iv measured at 2 hrs
- Format: ADME, organism-based
- condition set: read-out: Drug uptake
observation type: concentration at 2 h (µM)
# value in µM; strip the unit string

Q: Specify concentration at 2 h for COc1cc(-c2cncc(-c3ccc(N4CCNCC4)cc3)c2C)cc(OC)c1OC and stop.
A: 0.123

---

- assay protocol: Half life in BALB/c mouse at 5 mg/kg, po by LC-MS/MS analysis
- Format: ADME, organism-based
- condition set: in vivo
observation type: half-life (min)
// note: answer is a bare numeric in min

Q: Please give measured half-life of the following entry: COc1cc(-c2cc(-c3ccc(N4CCNCC4)cc3)cnc2C)cc(OC)c1OC
A: 235

---

Overview of reported half-life across a group of molecules:
- assay protocol: Half life in SD rat at 10 mg/kg, po after 0.25 to 24 hrs by LC/MS/MS method
- Format: ADME, organism-based
- condition set: in vivo
API: value field is a number in h; no unit string.

>  <chemical structure>
COc1cc(-c2cncc(-c3ccc(C4CCN(C)CC4)cc3)c2C)cc(OC)c1OC

>  <observation type>
half-life

>  <measured value>
3.9

$$$$

Here's the next entry for you.
Q: Entry COc1cc(-c2cncc(-c3ccc(N4CCNCC4)cc3)c2C)cc(OC)c1OC needs its half-life filled in; supply it.
A: 3.58

---

- tested system: Activin receptor type-1 (Homo sapiens, UniProt Q04771)
- assay protocol: Inhibition of human ALK2 using casein as substrate in presence of [gamma-33P]-ATP by radiometric hotspot assay
Each record here notes measured pIC50.
In plain terms, pIC50 is the concentration in mol/L turned into minus its base-10 logarithm.

Sample answers from the record:
>  <chemical structure>
COc1cc(-c2cncc(-c3ccc(N4CCNCC4)cc3)c2F)cc(OC)c1OC

>  <pIC50>
7.82

$$$$
>  <chemical structure>
COc1cc(-c2cncc(-c3ccc(C4CCNCC4)cc3)c2C)cc(OC)c1OC

>  <pIC50>
8.05

$$$$

Q: In one line, give reported pIC50 of the entry COc1cc(-c2cncc(-c3ccc(CN4CCN(C)CC4)cc3)c2C)cc(OC)c1OC .
A: 7.70

Q: Fill in reported pIC50 for this entry: COc1cc(-c2cncc(-c3ccc(N4CCNCC4)cc3)c2C#N)cc(OC)c1OC
A: 8.52

Q: Specify measured pIC50 for COc1cc(-c2cncc(-c3ccc(N4CCS(=O)(=O)CC4)cc3)c2C)cc(OC)c1OC .
A: 7.80

Q: Provide only the value of recorded pIC50 for COc1cc(-c2cncc(-c3ccc(N4CCN(C(C)C)CC4)cc3)c2C)cc(OC)c1OC
A: 8.15

Q: Tell me pIC50 reported for COc1cc(-c2cncc(-c3ccc(N4CCN(S(C)(=O)=O)CC4)cc3)c2C)cc(OC)c1OC
A: 7.54
